The reported numbers originate from paper PMC10663500.

target: T1, human programmed cell death protein 1 (hPD-1) C93S (aa 24-167) (Homo sapiens, UniProt Q15116, C93S); assay: SPR; Carterra LSA; Fab from the ammonium sulfate precipitate of the culture supernatant immobilised on a NiHC200M chip; hPD-1 (1-1024 nM) or mPD-1-Fc (4-1024 nM) as analyte, fourfold dilution series, no regeneration; HBS-EP pH 7.4, 25 °C; medians over the spots of a construct, KD = koff/kon; conditions: one partner purified
T1 construct: made as a fusion with a TEV site and human Fc; the Fc was cut off with TEV protease; source: Expi293F, purified (Protein A, TEV cleavage of Fc, SEC; monomer fractions); not shown: Fc (human), C-terminal, cleaved
T1 sequence (Q15116 24-167 C93S): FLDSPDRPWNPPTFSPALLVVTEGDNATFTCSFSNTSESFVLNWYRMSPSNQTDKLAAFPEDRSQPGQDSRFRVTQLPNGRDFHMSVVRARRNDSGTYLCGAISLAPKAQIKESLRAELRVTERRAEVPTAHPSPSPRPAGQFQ
Property label: pKd
Conceptually, pKd converts a concentration in mol/L into minus its log10.

{"Binder": "toripalimab Fab L.S61A (Fab, V domains shown, as the heavy chain of Sm3; light chain of Sm3 with this change; numbers count from the chain's first residue; source: Brevibacillus, culture supernatant (ammonium sulfate precipitate); not shown: 6xHis, C-terminal, kept; 6xHN, C-terminal, kept) VH: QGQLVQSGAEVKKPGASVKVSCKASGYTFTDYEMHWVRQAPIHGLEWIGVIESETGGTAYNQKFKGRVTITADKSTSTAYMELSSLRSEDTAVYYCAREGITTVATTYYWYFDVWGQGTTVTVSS VL: DVVMTQSPLSLPVTLGQPASISCRSSQSIVHSNGNTYLEWYLQKPGQSPQLLIYKVSNRFAGVPDRFSGSGSGTDFTLKISRVEAEDVGVYYCFQGSHVPLTFGQGTKLEIK", "Property label": "pKd", "Readout value": 8.86}

Could you now consider this next binder?
Exam item: So what's the measured pKd for this one? toripalimab Fab H.E52Y (Fab, V domains shown, heavy chain of Sm3 with this change; numbers count from the chain's first residue; as the light chain of Sm3; source: Brevibacillus, culture supernatant (ammonium sulfate precipitate); not shown: 6xHis, C-terminal, kept; 6xHN, C-terminal, kept) VH: QGQLVQSGAEVKKPGASVKVSCKASGYTFTDYEMHWVRQAPIHGLEWIGVIYSETGGTAYNQKFKGRVTITADKSTSTAYMELSSLRSEDTAVYYCAREGITTVATTYYWYFDVWGQGTTVTVSS VL: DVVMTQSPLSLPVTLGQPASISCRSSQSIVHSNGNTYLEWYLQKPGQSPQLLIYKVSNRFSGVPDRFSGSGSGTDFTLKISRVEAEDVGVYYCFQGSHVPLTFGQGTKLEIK
Marked response: 7.31
